Assay: Intravenous/oral pharmacokinetics and tissue distribution in mice
Type: in vivo
Conditions: female, ICR, mouse, po, 100 mg/kg p.o., plasma, read-out: Tmax, Plasma
Description: Female ICR mice (aged ∼6 to ∼8 weeks; 3 animals per time point) were used for all studies. Studies were performed as per approved internal protocols for animal care and use. Doses were administered as clear solutions in 50% polyethylene glycol 400 (PEG400) plus 50% dextrose and 5% water (D5W). […] Plasma samples were processed and analyzed by LC-tandem MS. […]
MEASURED_ENDPOINT: Tmax (min)
Unit min implied. Number only.

Name the recorded Tmax for `O=C(N[C@@H](Cc1ccccn1)C(=O)N[C@@H](CCc1ccccc1)B(O)O)c1cnccn1` .
12
